// values below are reported residual activity
# system: Dual specificity mitogen-activated protein kinase kinase 6 (Homo sapiens) (UniProt P52564)
# Sequence (whole entry): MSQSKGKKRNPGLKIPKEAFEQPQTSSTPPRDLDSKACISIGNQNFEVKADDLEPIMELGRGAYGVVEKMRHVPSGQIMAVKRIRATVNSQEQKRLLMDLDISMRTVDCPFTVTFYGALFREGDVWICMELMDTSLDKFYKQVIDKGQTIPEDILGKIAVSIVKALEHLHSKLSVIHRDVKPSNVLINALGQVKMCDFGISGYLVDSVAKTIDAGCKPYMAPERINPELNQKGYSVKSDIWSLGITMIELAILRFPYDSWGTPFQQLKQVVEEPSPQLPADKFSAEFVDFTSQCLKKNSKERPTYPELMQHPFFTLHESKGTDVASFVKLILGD
# reported-conditions: at 1 µM
endpoint: residual activity (%)

[[record]]
mol = "O=c1c2ccccc2[nH]c(=S)n1CCN1CCC(=C(c2ccc(F)cc2)c2ccc(F)cc2)CC1"
endpoint = "residual activity"
meas_value = 107

[[record]]
mol = "CN(C)c1ccc(/C=C2\\C(=O)Nc3ccccc32)cc1"
endpoint = "residual activity"
meas_value = 97

[[record]]
mol = "CNc1cc2c(Nc3cccc(Br)c3)ncnc2cn1"
endpoint = "residual activity"
meas_value = 72

[[record]]
mol = "Nc1cccc(-c2cc3c(Oc4cccc(O)c4)ncnc3[nH]2)c1"
endpoint = "residual activity"
meas_value = 74

[[record]]
mol = "COc1cc2ncnc(Nc3ccc(O)c(Br)c3)c2cc1OC"
endpoint = "residual activity"
meas_value = 88

[[record]]
mol = "COc1cccc(-c2cc(=O)c3ccccc3o2)c1N"
endpoint = "residual activity"
meas_value = 138

[[record]]
mol = "O=C1NC(=O)c2c1c1c3ccccc3[nH]c1c1[nH]c3cc(Br)ccc3c21"
endpoint = "residual activity"
meas_value = 94

[[record]]
mol = "CC(C)n1cnc2/c(=N/c3cccc(Cl)c3)nc(NCCO)[nH]c21"
endpoint = "residual activity"
meas_value = 73

[[record]]
mol = "Cn1cc(/C=C2\\C(=O)Nc3ccc(S(N)(=O)=O)cc32)c2ccccc21"
endpoint = "residual activity"
meas_value = 69

[[record]]
mol = "Ic1cccc(CSc2nnc(-c3ccncc3)o2)c1"
endpoint = "residual activity"
meas_value = 100

[[record]]
mol = "Oc1c2ccccc2c2c3c(cccc13)N=N2"
endpoint = "residual activity"
meas_value = 82

[[record]]
mol = "O=C(Nc1cccc(Nc2nccc(Nc3cccc(C(F)(F)F)c3)n2)c1)C1CC1"
endpoint = "residual activity"
meas_value = 76

[[record]]
mol = "O=C(O)c1ccc2c3c1cccc3c(=O)n1c3ccccc3nc21"
endpoint = "residual activity"
meas_value = 92

[[record]]
mol = "O=[N+]([O-])c1ccc(-c2nc(-c3ccc(F)cc3)c(-c3ccncc3)[nH]2)cc1"
endpoint = "residual activity"
meas_value = 50

[[record]]
mol = "Nc1n[nH]c2nnc(-c3c(-c4ccccc4)nn4ccccc34)cc12"
endpoint = "residual activity"
meas_value = 104

[[record]]
mol = "Oc1ccc(-c2nc(-c3ccc(F)cc3)c(-c3ccncc3)[nH]2)cc1"
endpoint = "residual activity"
meas_value = 12

[[record]]
mol = "COc1ccc(CNc2nc(N(CCO)CCO)nc3c2ncn3C(C)C)cc1"
endpoint = "residual activity"
meas_value = 102

[[record]]
mol = "CCC(=O)Nc1ccc2ncnc(Nc3cccc(Br)c3)c2c1"
endpoint = "residual activity"
meas_value = 77

[[record]]
mol = "O=C1Nc2ccc(Br)cc2/C1=C\\c1cc2c([nH]1)CCCC2"
endpoint = "residual activity"
meas_value = 76

